system: Plasmodium berghei; assay: Luciferase/luciferin-expressing antifolate-resistant parasites were used to infect a culture of HepG2 cells that were pre-incubated with compounds. Infected hepatocytes emit light due to the luciferase reaction. Assay results are presented as the percent inhibition of light emission compared to control. […]; format: functional; settings: sporozoite, read-out: LUCIFERASE INFECTION ASSAY - IC90
# Lookup of reported IC90 keyed by entry

# compound, IC90
rows = [
    ("Cc1nc(-c2ccc(CCNC(=O)CN3C(=O)NC(C)(c4ccc5ccccc5c4)C3=O)cc2)cs1 (stereo not drawn)", "> 10 µM"),
    ("c1ccc(CNc2nccc3[nH]c(-c4ccccc4)nc23)cc1", "7.44 µM"),
    ("COc1ccc(CC(N)c2csc(NC(=O)Nc3ccccc3Oc3ccccc3)n2)cc1 (stereo not drawn)", "> 7.17 µM"),
    ("CCOC(=O)c1sc2nc(C)nc(N3CC=C(c4c[nH]c5ncccc45)CC3)c2c1C", "> 10 µM"),
    ("COc1ccccc1CNC(=O)NC(C)c1ccc(Cl)cc1Cl (stereo not drawn)", "> 10 µM"),
    ("N#Cc1c(F)ccc(NC(=O)Nc2ccc(Cl)cc2)c1F", "> 10.7 µM"),
    ("CCCCN=C1NN=C(C23CC4CC(CC(C4)C2)C3)C(C)S1 (stereo not drawn)", "8.93 µM"),
    ("Fc1ccc(CN2CCN(Cc3ccco3)CC2)cc1", "> 12 µM"),
]

Form field: reported IC90 of "Cn1nc(C(F)(F)F)cc1-c1ccc(/C=C(\C#N)S(=O)(=O)c2ccc(Cl)cc2)s1"
> 7.21 µM

Form field: reported IC90 of "Cc1ccc(-c2c(C)sc3[nH]c(CN(Cc4nc(=O)c5c(-c6ccc(C)cc6)c(C)sc5[nH]4)Cc4ccccc4CN4CCCC4)nc(=O)c23)cc1"
> 10 µM

Form field: reported IC90 of "N#Cc1c(SCC(=O)c2ccc(F)c(F)c2)nc2c(c1-c1cccs1)CCCC2"
> 7.74 µM

Form field: reported IC90 of "N#CC(C#N)=NNc1ccc(F)cc1F"
> 16 µM

Form field: reported IC90 of "Cc1cc(O)c(C(=O)/C=C/c2cccc(C(F)(F)F)c2)c(=O)o1"
> 10 µM

Form field: reported IC90 of "COc1ccc(-n2nc(C)c3c(=O)c(Cl)c(C)[nH]c32)cc1"
> 10.9 µM

Form field: reported IC90 of "COc1ccc(-c2cc(NC(=O)Cc3ccc(S(=O)(=O)N4CCCC4)s3)ccc2OC)cc1"
4.64 µM

Form field: reported IC90 of CC1CC(C)CN(C(=O)CN2CCN(CC(=O)Nc3ccc(N4CCCCCC4)cc3)CC2)C1 (stereo not drawn)
> 10 µM

Form field: reported IC90 of "OCc1ccc(-c2cn3c(-c4ccc5c(c4)OCO5)cnc3cn2)cc1"
> 9.56 µM

Form field: reported IC90 of "Cc1cc(C)c(C#N)c(SCC(=O)N(C)Cc2cnn(-c3ccccc3)c2)n1"
> 10 µM

Form field: reported IC90 of "CN(C1CCCCCC1)S(=O)(=O)c1ccc(-n2ncc(Cl)c(Cl)c2=O)cc1"
5.25 µM

Form field: reported IC90 of "CC(C)OC(=O)c1c(NC(=O)CSc2nnc(N)[nH]2)sc2c1CCCC2"
> 10 µM

Form field: reported IC90 of CN(CC(=O)Nc1ccc(-c2nnc3n2CCCCC3)cc1)C1CCS(=O)(=O)C1 (stereo not drawn)
> 10 µM

Form field: reported IC90 of "CC(C)Cc1nc(N2CCNCC2)c(C#N)c2c1CCCC2"
> 11.1 µM

Form field: reported IC90 of Cc1ccc(NS(=O)(=O)c2ccc(NN=CC3C(=O)N(c4cccc(C(F)(F)F)c4)C(=O)c4ccccc43)c([N+](=O)[O-])c2)c(C)c1 (stereo not drawn)
> 10 µM

----------
tested on: Plasmodium berghei; test: Luciferase/luciferin-expressing antifolate-resistant parasites were used to infect a culture of HepG2 cells that were pre-incubated with compounds. Infected hepatocytes emit light due to the luciferase reaction. Assay results are presented as the percent inhibition of light emission compared to control. […]; type: functional; details: sporozoite, read-out: LUCIFERASE INFECTION ASSAY - IC50
parameter: IC50

# smiles.entry, IC50
rows = [
    ("Cn1c(Cn2nnc(-c3cccc(F)c3)n2)nc2ccccc2c1=O", "> 10 µM"),
    ("Cc1csc(-c2nc(-c3ccc(C(C)(C)C)cc3)no2)c1", "> 11.1 µM"),
    ("Nc1nc2c(c(C(F)(F)F)n1)CCc1ccccc1-2", "> 12.4 µM"),
    ("CS(=O)(=O)Nc1ccc(S(=O)(=O)NC23CC4CC(CC(C4)C2)C3)cc1", "> 8.58 µM"),
    ("CCC(CC)CN1CCC2(CC1)C(=O)N(Cc1ccc(OC)cc1)C(=O)N2CC(C)C", "> 7.68 µM"),
]

Form field: reported IC50 of "Cc1c(NC(=O)c2cccc(Nc3nc(-c4cccs4)nc4ccccc34)c2)c(=O)n(-c2ccccc2)n1C"
9.1 µM

Form field: reported IC50 of "OCc1ccccc1-c1cn2c(-c3ccc(Oc4ccccc4)cc3)cnc2cn1"
0.646 µM

Form field: reported IC50 of "Cc1cc(=O)n2nc(C(F)(F)F)n(CC(=O)Nc3ccc(Sc4ccc(C)c(C)c4)cc3)c2c1"
> 10 µM

Form field: reported IC50 of "Cc1nc(Cc2nc(-c3ccc(S(C)(=O)=O)cc3)cs2)cs1"
> 10 µM

----------
# Lookup of reported IC90 keyed by entry
test system: Plasmodium berghei; assay: Luciferase/luciferin-expressing antifolate-resistant parasites were used to infect a culture of HepG2 cells that were pre-incubated with compounds. Infected hepatocytes emit light due to the luciferase reaction. Assay results are presented as the percent inhibition of light emission compared to control. […]; type: functional; details: sporozoite, read-out: LUCIFERASE INFECTION ASSAY - IC90

Form field: reported IC90 of "COc1ccccc1-c1ccc2ncc(-c3cccc(NC(C)=O)c3)n2n1"
> 10 µM

----------
test system: Plasmodium berghei; experiment: Luciferase/luciferin-expressing antifolate-resistant parasites were used to infect a culture of HepG2 cells that were pre-incubated with compounds. Infected hepatocytes emit light due to the luciferase reaction. Assay results are presented as the percent inhibition of light emission compared to control. […]; type: functional; details: sporozoite, read-out: LUCIFERASE INFECTION ASSAY - IC50
parameter: IC50

Worked cases, IC50 given:
# compound, target.or.test.system, IC50
data = [
    ("COc1cc(NC(=O)COc2ccc3[nH]c4ccccc4c(=O)c3c2)c(OC)cc1Cl", "Plasmodium berghei", "0.246 µM"),
    ("C/C(N)=C(/C#N)C(=O)COC(=O)c1cc(-c2cccc3ccccc23)nc2ccccc12", "Plasmodium berghei", "> 10 µM"),
    ("Cn1cc(-c2cc3cnc(Nc4ccc(C(N)=O)cc4)cc3n2Cc2ccccc2)cn1", "Plasmodium berghei", "> 10 µM"),
    ("Nc1cc(Cl)ccc1Oc1ccc2ccccc2c1", "Plasmodium berghei", "> 10 µM"),
    ("COc1ccc2c(Cn3ncc(Cl)c(Cl)c3=O)cc(=O)oc2c1", "Plasmodium berghei", "4.21 µM"),
]

Form field: reported IC50 of O=C(NC(c1ccc(F)cc1)c1cccs1)c1cc2ccccc2o1 (centres undefined)
> 10 µM

Form field: reported IC50 of "Cc1cc(=O)n2nc(CSc3nc4ccccc4c(=O)n3C3CCCC3)sc2n1"
> 10 µM

Form field: reported IC50 of "CC(C)c1ccc(-c2ccc3nnc(-c4ccc(OCCCN(C)C)cc4)n3c2)cc1"
> 10 µM

Form field: reported IC50 of "Cn1cc(Br)cc1C(=O)Nc1ccc2c(c1)OCCO2"
> 10 µM

Form field: reported IC50 of "O=c1c(-c2ccc([N+](=O)[O-])cc2)c(-c2ccc(Cl)cc2)cc2[nH]c3ccccc3n12"
> 10 µM

Form field: reported IC50 of O=c1cc(CNC(CCCc2ccccc2)c2ccccc2)nc2ccc(Cl)cn12 (centres undefined)
> 10 µM

Form field: reported IC50 of "O=C(COc1ccccc1SCc1ccc(Cl)cc1)NNC(=O)c1ccccc1Cl"
> 7.15 µM

Form field: reported IC50 of "COc1ccc2cc(C(=O)NNC(=O)c3ccccn3)c(C)nc2c1"
8.4 µM

Form field: reported IC50 of "O=C(Nc1ccc(OC(F)(F)F)cc1)Nc1cc(-c2cccs2)n[nH]1"
> 8.96 µM

Form field: reported IC50 of "CC(C)c1ccccc1N(C(=O)C1CCC1)c1nc2ccccc2s1"
> 10 µM

Form field: reported IC50 of "Cn1c(NCc2ccccc2F)nc2cnc(Nc3cccc(OC(F)(F)F)c3)cc21"
> 10 µM

Form field: reported IC50 of "CC(C)(C)NC(=S)N/N=C/c1cccc(O)c1O"
> 12.3 µM

Form field: reported IC50 of "O=C(Nc1nc2c(s1)CCc1ccccc1-2)c1cccc(-n2cnnn2)c1"
> 10 µM

Form field: reported IC50 of "Cc1noc(C)c1C(=O)ONC(=N)c1ccc(OC(F)(F)F)cc1"
> 9.61 µM
